From: the RNAGym collection of RNA variant scans (doi:10.1021/acssynbio.7b00057)

B1: Pistol ribozyme (parent)
chain: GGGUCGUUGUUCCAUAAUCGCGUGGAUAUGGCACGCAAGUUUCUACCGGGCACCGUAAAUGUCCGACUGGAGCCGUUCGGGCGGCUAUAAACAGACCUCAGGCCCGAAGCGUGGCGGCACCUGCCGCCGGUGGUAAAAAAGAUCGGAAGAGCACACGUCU

- Variants of: B1
- Assay notes: aptazyme ON/OFF ratio, guanine; higher = stronger switching; co-transcriptional cleavage with and without guanine
Known aptazyme ON/OFF ratio of a selection of variants
Measurement type: aptazyme ON/OFF ratio

Variant | Measurement type | Endpoint result
U7A U8A G9U U11G C12U C13A | aptazyme ON/OFF ratio | 1.28
U8G G9A C12U C13A | aptazyme ON/OFF ratio | 1.25
U7A G9A U10A C12A C13G | aptazyme ON/OFF ratio | 1.07
U8C G9C U11C C12A C13U | aptazyme ON/OFF ratio | 1.06
U7C U8G G9C U10G U11A C12U | aptazyme ON/OFF ratio | 1.24
U7C U8A G9U U10G U11G C12A C13A | aptazyme ON/OFF ratio | 1.07
U7A U8A U11A C13A | aptazyme ON/OFF ratio | 1.11
U7C U8A G9A U10A U11G C13G | aptazyme ON/OFF ratio | 1.02
U7G U8C G9C U11A C12A C13U | aptazyme ON/OFF ratio | 1.13
U8C G9U U10G U11G C12U C13U | aptazyme ON/OFF ratio | 1.15
U7A G9U U10A U11G | aptazyme ON/OFF ratio | 1.31
U7A U8C G9A U10C | aptazyme ON/OFF ratio | 2.35
U7C G9U C12U C13A | aptazyme ON/OFF ratio | 1.12
